B1: library; numbered along this chain (parent)
chain: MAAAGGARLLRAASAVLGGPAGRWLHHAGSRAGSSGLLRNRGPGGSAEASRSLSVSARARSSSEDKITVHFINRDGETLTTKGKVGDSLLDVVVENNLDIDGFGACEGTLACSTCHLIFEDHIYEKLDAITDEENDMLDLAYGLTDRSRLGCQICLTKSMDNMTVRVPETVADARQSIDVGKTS

- Variants of: B1
- Test Description: scaled log2 fold change in cell abundance, elesclomol vs control (0 = silent mean, 1 = nonsense mean) (scaled log2 ratio); higher = higher viability under elesclomol (loss of FDX1 cuproptosis function);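 also: variant abundance is its share of total variant reads in each endpoint sample, from next-generation sequencing of the integrated ORF PCR-amplified out of genomic DNA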
- Study Conditions: with ABC1 FDX1 KO; elesclomol 5 nM; glucose 10 mM; 14 days
Assign fulfilled whenever scaled log2 fold change does not fall below 0.02; assign not fulfilled whenever it does.

{"columns": ["Variant Descriptor", "Discrete Label"],
 "data": [
  ["D136K", "fulfilled"],
  ["V93W", "fulfilled"],
  ["D173T", "not fulfilled"]
]}

Enquiry: Form field: scaled log2 fold change at least 0.02? Entry: T114N
Return: fulfilled

Enquiry: Form field: scaled log2 fold change at least 0.02? Entry: F71R
Return: fulfilled

Enquiry: Form field: scaled log2 fold change at least 0.02? Entry: I123W
Return: not fulfilled

Enquiry: Form field: scaled log2 fold change at least 0.02? Entry: G42P
Return: fulfilled

Enquiry: Form field: scaled log2 fold change at least 0.02? Entry: E107W
Return: fulfilled

Enquiry: Form field: scaled log2 fold change at least 0.02? Entry: V180E
Return: not fulfilled

Enquiry: Form field: scaled log2 fold change at least 0.02? Entry: G45T
Return: fulfilled

Enquiry: Form field: scaled log2 fold change at least 0.02? Entry: K158V
Return: fulfilled

Enquiry: Form field: scaled log2 fold change at least 0.02? Entry: E169M
Return: not fulfilled

Enquiry: Form field: scaled log2 fold change at least 0.02? Entry: V92E
Return: fulfilled

Enquiry: Form field: scaled log2 fold change at least 0.02? Entry: G108H
Return: fulfilled

Enquiry: Form field: scaled log2 fold change at least 0.02? Entry: E77S
Return: not fulfilled

Enquiry: Form field: scaled log2 fold change at least 0.02? Entry: A12I
Return: fulfilled
